meta.source: paper PMC10397247

// values below are reported interaction score
Molecular target: T1, 4H1845-AA
T1 chain: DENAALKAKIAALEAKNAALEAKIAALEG
Assay: two-hybrid library CCmax;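 also: natural log of median RNA to DNA barcode read ratio; higher means stronger binding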
Conditions: mean of both orientations
# output: bare number, no unit

Data request, read-out interaction score, for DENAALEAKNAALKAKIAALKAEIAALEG [4H1513-AA]
-1.62

Data request, read-out interaction score, for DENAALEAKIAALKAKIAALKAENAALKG [4H1388-AA]
-1.71

Data request, read-out interaction score, for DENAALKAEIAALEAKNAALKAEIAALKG [4H1594-AA]
-0.968

Data request, read-out interaction score, for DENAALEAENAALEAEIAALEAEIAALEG [4H1153-AA]
-1.27
